Biological target: T1, recombinant protein containing hST2 extracellular domain with mouse antibody heavy chain Fc tag (hST2-ECD-mFc) (human)
T1 construct: Used for SPR and for ELISA of chimeric and humanized antibodies; also called human ST2 antigen
T1 chain: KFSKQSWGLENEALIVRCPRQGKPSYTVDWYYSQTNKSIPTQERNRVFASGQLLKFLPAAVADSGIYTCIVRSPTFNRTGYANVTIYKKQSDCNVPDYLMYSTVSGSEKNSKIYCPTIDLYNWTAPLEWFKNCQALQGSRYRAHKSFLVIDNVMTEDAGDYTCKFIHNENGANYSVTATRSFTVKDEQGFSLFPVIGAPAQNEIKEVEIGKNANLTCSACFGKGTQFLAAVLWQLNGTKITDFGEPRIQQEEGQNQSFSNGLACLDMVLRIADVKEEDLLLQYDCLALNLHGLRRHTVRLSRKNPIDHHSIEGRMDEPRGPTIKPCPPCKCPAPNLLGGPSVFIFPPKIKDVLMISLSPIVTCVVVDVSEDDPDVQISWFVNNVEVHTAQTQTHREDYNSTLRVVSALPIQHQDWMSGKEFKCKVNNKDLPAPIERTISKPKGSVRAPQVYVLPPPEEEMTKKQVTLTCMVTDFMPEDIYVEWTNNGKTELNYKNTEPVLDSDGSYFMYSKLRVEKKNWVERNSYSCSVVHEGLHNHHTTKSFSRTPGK
Experiment: ELISA, plate coated with hST2-ECD-mFc
QUANTITY_NAME: EC50 (nM)
Only the number, expressed in nM, is required.

{"BINDER": "Chimeric 31C8 (antibody, human IgG2, kappa, V domains shown, also called xi31C8) VH: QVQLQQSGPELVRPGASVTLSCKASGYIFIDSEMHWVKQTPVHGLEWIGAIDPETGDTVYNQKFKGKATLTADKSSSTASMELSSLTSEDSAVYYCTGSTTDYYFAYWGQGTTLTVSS VL: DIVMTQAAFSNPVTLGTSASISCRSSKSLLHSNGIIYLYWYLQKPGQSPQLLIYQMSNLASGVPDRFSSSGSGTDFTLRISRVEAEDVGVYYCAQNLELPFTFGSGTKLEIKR", "ENDPOINT_UNIT": "nM", "RESULT_VALUE": 0.0865}

Input line: Returns the measured EC50 for the input binder. Input: Humanized 31C8-1.1 (antibody, human IgG2, kappa, V domains shown, also called hz31C8-1.1; hz31C81-1.1) VH: EVQLVQSGAEVKKPGATVKISCKASGYIFIDSEMHWVQQAPGKGLEWMGAIDPETGDTVYAEKFQGRVTITADKSSSTAYMELSSLRSEDTAVYYCTGSTTDYYFAYWGQGTLVTVSS VL: DIQMTQSPSSLSASVGDRVTITCRSSKSLLHSNGIIYLYWYQQKPGKAPKLLIYQLSNLASGVPSRFSSSGSGTDFTLTISSLQPEDFATYYCAQNLELPFTFGQGTKVEIKR
Output line: 0.0879

Input line: Suppose we examine the binder Humanized 31C8-1.2 (antibody, human IgG2, kappa, V domains shown, also called hz31C8-1.2; hz31C81-1.2) VH: QVQLVQSGAKVKKPGATVKISCKASGYIFIDSEMHWVQQAPGKGLEWMGAIDPETGDTVYAKKFKGRVTITADKSSSTAYMELSSLRSEDTAVYYCTGSTTDYYFAYWGQGTLVTVSS VL: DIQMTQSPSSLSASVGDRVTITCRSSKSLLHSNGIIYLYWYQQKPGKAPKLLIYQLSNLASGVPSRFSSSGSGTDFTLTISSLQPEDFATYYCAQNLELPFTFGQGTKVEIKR ; what EC50 value has been reported?
Output line: 0.0937
